system: pig liver esterase (PLE); assay type: biochemical; parameters: key: “+” indicates kinetic racemic resolution; “−” means that no reaction took place; conditions: General Procedure I
Property: cleaved by PLE

• COC1=CCCC=C1.O=[C]=[Fe](=[C]=O)=[C]=O [reference compound] = −
• CC(=O)OC1=CC(C)(C)CC(OC(C)=O)=C1.[C-]#[O+].[C-]#[O+].[C-]#[O+].[Fe] [rac-13, reference compound] = +
• CC(=O)OC1=CCCC=C1.[C-]#[O+].[C-]#[O+].[C-]#[O+].[Fe] = −
• CC(=O)OC1=CC=CCC1.[C-]#[O+].[C-]#[O+].[C-]#[O+].[Fe] = +

Proceeding to the next compound to report its cleaved by PLE.
What cleaved by PLE value was documented for this compound, `CC(C)(C)C(=O)OC1=CCCC=C1.[C-]#[O+].[C-]#[O+].[C-]#[O+].[Fe]` ?
−

Cited source for all entries: patent US8927750B2
